# Experimental System: Human GLP-1 receptor (Homo sapiens, UniProt P43220)
# Construct: expressed in transfected cells; host or cells: CHO-K1
# Sequence (P43220 24-463): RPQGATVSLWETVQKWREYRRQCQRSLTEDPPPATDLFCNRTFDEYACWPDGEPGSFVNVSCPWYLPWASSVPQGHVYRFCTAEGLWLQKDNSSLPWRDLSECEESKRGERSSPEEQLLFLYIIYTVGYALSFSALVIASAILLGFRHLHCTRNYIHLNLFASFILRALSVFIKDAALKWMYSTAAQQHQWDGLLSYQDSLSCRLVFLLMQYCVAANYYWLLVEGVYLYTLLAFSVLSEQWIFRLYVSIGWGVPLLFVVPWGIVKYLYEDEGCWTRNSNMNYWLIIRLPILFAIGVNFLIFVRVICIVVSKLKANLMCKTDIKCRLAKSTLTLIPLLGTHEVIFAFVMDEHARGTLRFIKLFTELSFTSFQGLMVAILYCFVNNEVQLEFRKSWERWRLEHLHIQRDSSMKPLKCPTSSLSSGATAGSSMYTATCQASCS
# Procedure Summary: Measurement of GLP-1 receptor agonist activity (cAMP assay in hGLP-1R/CHO-K1 cells)
# Assay type: cell-based
# Recorded Conditions: CHO-K1; maximum effect; cAMP with 2 nM human GLP-1 (7-36) = 100%, DMSO only = 0%
# Method: Human GLP-1 receptor stably expressing cells (hGLP-1R/CHO-K1 cells) are cultured in an α-MEM medium (Sigma) containing 10% FBS (Hyclone), 2% GlutaMAX (Gibco), 1% G418 (Nacalai Tesque), and 1% Penicillin-Streptomycin Mixed Solution (Sigma) at 37° C. under 5% CO2 conditions, and recovered by treating a 10 fold diluted 5.0 g/1-trypsin/5.3 mmol/1-EDTA solution (Nacalai Tesque) and cryopreserved. […]

Compound	Uom	Emax
CC(NCc1nc2ccc(C(=O)O)cc2n1C[C@@H]1CCO1)c1nc(OCc2ccc(Cl)cc2F)c(C(F)(F)F)cc1F (mixture of isomers)	%	65.3
CN(CCc1cnc(OCc2ccc(Cl)cc2F)c(C(F)(F)F)c1)Cc1nc2ccc(C(=O)O)cc2n1C[C@@H]1CCO1	%	52
CC(c1ccc(C(F)(F)F)c(OCc2ccc(Cl)cc2F)n1)N(C)Cc1nc2ccc(C(=O)O)cc2n1C[C@@H]1CCO1 (some centres unmarked)	%	74.7
CC(NCc1nc2ccc(C(=O)O)cc2n1C[C@@H]1CCO1)c1ccc(C(F)(F)F)c(OCc2ccc(Cl)cc2F)n1 (mixture of isomers)	%	60
O=C(O)c1ccc2nc(CNCc3ccc(C(F)(F)F)c(OCc4ccc(Cl)cc4F)n3)n(C[C@@H]3CCO3)c2c1	%	55

Where these numbers come from: patent US20260098031A1
